Provenance of the data: PubChem BioAssay AID1963851

system: 188146-221-R-J1-PDC complex spheroid viability; experiment: Anticancer human tumor 188146-221-R-J1-PDC patient-derived colon adenocarcinoma cell line growth inhibition [POLQ]; settings: second compound 0.0316 µM; first compound 0.316 µM; hits give low values;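 note: spheroids exposed to compounds for seven days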
Note to self: use criterion met only for viability, T/C readings below 70%; a reading exactly at 70% still gets criterion not met.

Request: Could you please tell me whether viability, T/C recorded for CC1COCCN1c1cc(-c2ccnn2C)c2ccnc(-c3ccn[nH]3)c2n1 (stereo not given) + Cc1cccc(N(C)C(=O)C2C(O)CCN2c2nc(C)cc(C(F)(F)F)c2C#N)c1 is less than 70%?
Response: criterion met

Request: Could you please tell me whether viability, T/C recorded for O=c1[nH]cc(F)c(=O)[nH]1 + Cc1cccc(N(C)C(=O)C2C(O)CCN2c2nc(C)cc(C(F)(F)F)c2C#N)c1 is less than 70%?
Response: criterion not met

Request: Could you please tell me whether viability, T/C recorded for CCc1c2c(nc3ccc(O)cc13)-c1cc3c(c(=O)n1C2)COC(=O)[C@]3(O)CC + Nc1ccc(C#CCN(C(=O)Cc2ncc(C(F)(F)F)cc2C(F)(F)F)c2ccc(F)cc2)nn1 is less than 70%?
Response: criterion met

Request: Could you please tell me whether viability, T/C recorded for CNCc1ccc(-c2[nH]c3cc(F)cc4c3c2CCNC4=O)cc1 + COC1C(OC(N)=O)C(O)C(Oc2ccc3c(O)c(NC(=O)c4ccc(O)c(CC=C(C)C)c4)c(=O)oc3c2C)OC1(C)C is less than 70%?
Response: criterion not met

Request: Could you please tell me whether viability, T/C recorded for C=CC(=O)N1CCN(c2nc(=O)n(-c3c(C)ccnc3C(C)C)c3nc(-c4c(O)cccc4F)c(F)cc23)C(C)C1 (stereo not given) + COC1C(OC(N)=O)C(O)C(Oc2ccc3c(O)c(NC(=O)c4ccc(O)c(CC=C(C)C)c4)c(=O)oc3c2C)OC1(C)C is less than 70%?
Response: criterion not met

Request: Could you please tell me whether viability, T/C recorded for COc1ccc([C@@H](O)c2cc(-c3ncnc4cc(N5CCOCC5)ccc34)c(F)cc2Cl)nn1 + COC1C(OC(N)=O)C(O)C(Oc2ccc3c(O)c(NC(=O)c4ccc(O)c(CC=C(C)C)c4)c(=O)oc3c2C)OC1(C)C is less than 70%?
Response: criterion not met

Request: Could you please tell me whether viability, T/C recorded for C=CC(=O)N1CCN(c2nc(=O)n(-c3c(C)ccnc3C(C)C)c3nc(-c4c(O)cccc4F)c(F)cc23)C(C)C1 (stereo not given) + Nc1ccc(C#CCN(C(=O)Cc2ncc(C(F)(F)F)cc2C(F)(F)F)c2ccc(F)cc2)nn1 is less than 70%?
Response: criterion not met

Request: Could you please tell me whether viability, T/C recorded for CC1COCCN1c1cc(-c2ccnn2C)c2ccnc(-c3ccn[nH]3)c2n1 (stereo not given) + Nc1ccc(C#CCN(C(=O)Cc2ncc(C(F)(F)F)cc2C(F)(F)F)c2ccc(F)cc2)nn1 is less than 70%?
Response: criterion met

Request: Could you please tell me whether viability, T/C recorded for CNCc1ccc(-c2[nH]c3cc(F)cc4c3c2CCNC4=O)cc1 + Cc1cccc(N(C)C(=O)C2C(O)CCN2c2nc(C)cc(C(F)(F)F)c2C#N)c1 is less than 70%?
Response: criterion not met

Request: Could you please tell me whether viability, T/C recorded for CCc1cc2c(N3CCc4c(cc(Cn5ccnc5)cc4-c4cn(C)nc4C(F)(F)F)C3=O)ccnc2c(OC)n1 + COC1C(OC(N)=O)C(O)C(Oc2ccc3c(O)c(NC(=O)c4ccc(O)c(CC=C(C)C)c4)c(=O)oc3c2C)OC1(C)C is less than 70%?
Response: criterion not met
